System: SK-MEL-2
experiment-description: NCI tumour cell line growth inhibition, 48 h
Activity calls are given as the source filed them. Cut-off read from the data, not from the text of the source: active = GI50 up to about 1.1 µM and inactive = higher.
property-name: GI50

Query COC(=O)C1CCC(N2C(=O)CCC2C(=O)OC)=N1 (stereo not drawn) yields GI50 of > 100 µM (inactive)

New cases:
Query "O=C(O)CCCSc1ccccc1" yields GI50 of > 100 µM (inactive)

Query "C(=C1\CCC/C(=C/c2ccccc2)C1=NNc1ccccc1)/c1ccccc1" yields GI50 of > 100 µM (inactive)

Query COC(=O)C(N)CCCC(N)C(=O)NC(C)C(=O)NC(CCC(=O)NCCNCCNc1c2ccccc2nc2cccc([N+](=O)[O-])c12)C(N)=O (stereo not drawn) yields GI50 of 8.51 µM (inactive)

Query "Cc1cc(C)nc(NS(=O)(=O)c2ccc(Nc3c4ccccc4nc4c(C(=O)NC(CO)(CO)CO)cccc34)cc2)n1" yields GI50 of 20.8 µM (inactive)

Query "Cc1c(C(=O)CC(=O)C(=O)Nc2cccc(C(F)(F)F)c2)[n+]([O-])c2ccccc2[n+]1[O-]" yields GI50 of 4.28 µM (inactive)

Query C/C=C(\C)c1cc(=O)c2c(C)cc3c(c2o1)C(=O)c1c(O)c(C2CC(C)(N(C)C)C(OC(C)=O)C(C)O2)cc(C2CC(N(C)C)C(O)C(C)O2)c1C3=O (stereo not drawn) yields GI50 of 1.22 µM (inactive)

Query "CNc1ccccc1S(=O)(=O)c1ccccc1[N+](=O)[O-]" yields GI50 of 88.3 µM (inactive)

Query "CC1(C)C2=CCCC(=O)[C@@]2(C)CC[C@@H]1O" yields GI50 of 5.97 µM (inactive)

Query COC(=O)C(=O)C(C(=O)C(=O)Nc1ccccc1OC)c1nc2ccc([N+](=O)[O-])cc2nc1O (stereo not drawn) yields GI50 of > 100 µM (inactive)

Query COC(=O)[C@H](Cc1ccccc1)NP(=O)(OCCC#N)OCC1OC(n2cc(C)c(=O)[nH]c2=O)CC1N=[N+]=[N-] (stereo partly drawn) yields GI50 of > 100 µM (inactive)

Query "NC(=O)Nc1n[nH]c(-c2ccccc2)n1" yields GI50 of > 100 µM (inactive)

Query "N#Cc1c(N2CCOCC2)[nH]c(=O)c(C(c2c(Cl)cccc2Cl)c2c(O)c(C#N)c(N3CCOCC3)[nH]c2=O)c1O" yields GI50 of 17.6 µM (inactive)

Query "Cc1nc(-n2nc(-c3ccccc3)cc2-c2ccccc2)sc1C(=O)/C=C/c1cccc([N+](=O)[O-])c1" yields GI50 of 17.7 µM (inactive)

Query "COc1cc(/C=C2\N=C(c3ccccc3)N(/N=C/c3cc4cc(C)ccc4nc3Cl)C2=O)ccc1O" yields GI50 of 12.9 µM (inactive)

Query CCOC(=O)C(C(=S)Nc1ccccc1)c1nn2c(=O)cc(C)nc2s1 (stereo not drawn) yields GI50 of 36.2 µM (inactive)

Query "COc1ccccc1NC(=S)N/N=C1\C(=O)Nc2ccccc21" yields GI50 of > 100 µM (inactive)

Query COc1nc(NC2OCC(OC(C)=O)C(OC(C)=O)C2OC(C)=O)c(/N=C(\C)C(C)=O)c(=O)n1C (stereo not drawn) yields GI50 of > 100 µM (inactive)

* * *

Test system: OVCAR-4
experiment-description: NCI tumour cell line growth inhibition, 48 h
The source made the active and inactive calls. Cut-off read from the data, not from the text of the source: active = GI50 up to about 1.1 µM and inactive = higher.
Just give me one of these, please: YES (active), NO (inactive)

Query :: Please state the recorded outcome for this compound: "COC1=C(N2CC2)C(=O)c2nc3n(c2C1=O)CCC3"
Result :: YES

Query :: Please state the recorded outcome for this compound: "Cc1cc(C)nc(NS(=O)(=O)c2ccc(Nc3c4ccccc4nc4c(C(=O)NC(CO)(CO)CO)cccc34)cc2)n1"
Result :: NO

Query :: Please state the recorded outcome for this compound: "O=c1c(-c2ccccc2)c(SCCN2CCCC2)n(-c2ccccc2)c(=S)n1-c1ccccc1"
Result :: NO

Query :: Please state the recorded outcome for this compound: "Cn1c2ccccc2n2c3ccccc3c(=S)c(C#N)c12"
Result :: NO

Query :: Please state the recorded outcome for this compound: COC(=O)C1=C(OC(=O)/C(=C/c2ccc(Cl)cc2)c2ccccc2)C(C(=O)OC)[C@@]2(O)[C@@H](C(=O)OC)[C@H](C)C[C@@H]1[C@@H]2C(=O)OC (stereo not given in full)
Result :: NO

Query :: Please state the recorded outcome for this compound: CCSCCC(N)C(=O)O (stereo not given)
Result :: NO

Query :: Please state the recorded outcome for this compound: CCC(C#N)(c1ccccc1)N(CCc1ccccc1)C(=O)c1ccccc1 (stereo not given)
Result :: NO

Query :: Please state the recorded outcome for this compound: "Nc1c(F)c(F)c2c(c1F)N(CCCCCl)c1ccccc1S2"
Result :: NO

Query :: Please state the recorded outcome for this compound: "O=C1NC(=S)N/C1=C\c1cc2c(=O)c3ccccc3sc2s1"
Result :: NO

New cases:
Query :: Please state the recorded outcome for this compound: OC1(C(F)(F)F)OCCN=C1C(F)(F)F (stereo not given)
Result :: NO

* * *

Test system: SF-295
experiment-description: NCI tumour cell line growth inhibition, 48 h
Active and inactive are the calls of the source. No stated cut-off is given here; in the data, active = GI50 up to about 1.1 µM and inactive = higher.
Just give me one of these, please: 1 = active, 0 = inactive

Past entries and their recorded results:
Query :: Please state the recorded outcome for this compound: "COC1=CC(=O)c2c(ccc3ncnc(N)c23)C1=O"
Result :: 0

Query :: Please state the recorded outcome for this compound: Cn1c2c(c3ccccc31)C1CCCCCCC1C1C(=O)OC(=O)C21 (stereo not given)
Result :: 0

Query :: Please state the recorded outcome for this compound: COc1ccc(/N=N/c2c(C)c(C#N)c(=S)n(C3OC(COC(C)=O)C(OC(C)=O)C(OC(C)=O)C3OC(C)=O)c2C)cc1 (stereo not given)
Result :: 0

New cases:
Query :: Please state the recorded outcome for this compound: "CN(C)c1n/c(=N/Cc2ccccn2)ss1"
Result :: 0

Query :: Please state the recorded outcome for this compound: C=C(C)C#CC(O)(C(=O)OC1CCN(C)CC1)C(C)C (stereo not given)
Result :: 0

Query :: Please state the recorded outcome for this compound: "CN(Cc1cnc2nc(N)nc(N)c2n1)c1ccc(C(=O)NCS(=O)(=O)O)cc1"
Result :: 0

Query :: Please state the recorded outcome for this compound: "COc1cccc2c1C(=O)c1ccc3cc(CCl)cc(O)c3c1C2=O"
Result :: 1

Query :: Please state the recorded outcome for this compound: COC1OCC(O)C(NC(=O)N(C)N=O)C1O (stereo not given)
Result :: 0

Query :: Please state the recorded outcome for this compound: "Cc1cc(C)nc(NS(=O)(=O)c2ccc(Nc3c4ccccc4nc4c(C(=O)NC(CO)(CO)CO)cccc34)cc2)n1"
Result :: 0

Query :: Please state the recorded outcome for this compound: O=C1c2c[nH]nc2C(c2ccccc2)N1c1ccccc1 (stereo not given)
Result :: 0

* * *

Test system: NCI-H226
experiment-description: NCI tumour cell line growth inhibition, 48 h
Active and inactive are the calls of the source. Rule as the data show it: active = GI50 up to about 1.1 µM and inactive = higher.
Just give me one of these, please: 1 = active, 0 = inactive

Past entries and their recorded results:
Query :: Please state the recorded outcome for this compound: CC(=O)NNC(=O)C1CCCCN1 (configuration not stated)
Result :: 0

Query :: Please state the recorded outcome for this compound: "Nc1ccc(-c2nc3ccccc3s2)cc1I"
Result :: 1

Query :: Please state the recorded outcome for this compound: NCCCCC(N)C(=O)N1CCN(c2nc(N3CCCC3)c3nc(Cl)c(NCc4ccccc4)nc3n2)CC1 (configuration not stated)
Result :: 0

New cases:
Query :: Please state the recorded outcome for this compound: "COc1cccc(N(CN2CC=CC2=O)C(C)=O)c1"
Result :: 0

Query :: Please state the recorded outcome for this compound: "Cc1cc(-c2nc3cc(F)ccc3s2)ccc1NC(=O)[C@@H](N)CCCCN"
Result :: 1

* * *

Test system: HOP-18
experiment-description: NCI tumour cell line growth inhibition, 48 h
The source made the active and inactive calls. No stated cut-off is given here; in the data, active = GI50 up to about 1.1 µM and inactive = higher.
Entries annotated with measured GI50

Field: example entries. Status: answers known.
Query "CCOc1ccccc1NC(=O)CSc1nnc(Cc2ccccc2)o1" yields GI50 of 20.4 µM (inactive)

Query "CC1(C)C2=CCCC(=O)[C@@]2(C)CC[C@@H]1O" yields GI50 of > 100 µM (inactive)

Query N#CCCN(C1=NN(C(=O)CC(=O)Nc2ccc(Cl)cc2)C(c2ccccc2)C1)c1ccc(Cl)cc1 (stereo not given) yields GI50 of > 100 µM (inactive)

Query "O=c1c2cc(Br)cc(Br)c2nc(CCCl)n1-c1ccc(O)c([N+](=O)[O-])c1" yields GI50 of 16.7 µM (inactive)

Would you kindly look at the next entry?
Query "Cc1c(C(=O)CC(=O)C(=O)Nc2cccc(C(F)(F)F)c2)[n+]([O-])c2ccccc2[n+]1[O-]" yields GI50 of 11.2 µM (inactive)

* * *

Entries annotated with measured GI50
Tested on: SK-MEL-2
experiment-description: NCI tumour cell line growth inhibition, 48 h
Activity calls are given as the source filed them. Cut-off read from the data, not from the text of the source: active = GI50 up to about 1.1 µM and inactive = higher.

Query "C/C(=N\NC(=O)CC(=O)Nc1ccc(C)cc1)c1cc2ccccc2oc1=O" yields GI50 of > 100 µM (inactive)

Query "CCN(CC)CCC(=O)c1ccc(Oc2ccc(F)cc2)cc1" yields GI50 of 46.2 µM (inactive)

Query "CN(C(=O)c1cccs1)C(=S)N1CCN(c2ccccn2)CC1" yields GI50 of > 100 µM (inactive)

New cases:
Query O=C1CC[C@@]23CC(=O)O[C@@H]2CCCC3C1 (stereo partly specified) yields GI50 of > 100 µM (inactive)

Query Cc1ccc(C)c2c1C1CCCCC3(OCCCO3)C21O (stereo unspecified) yields GI50 of > 100 µM (inactive)

Query COc1cc(C2c3cc4c(cc3[C@@H](Nc3ccc(N(C)C)cc3)[C@H]3COC(=O)C23)OCO4)cc(OC)c1O (stereo partly specified) yields GI50 of 2.37 µM (inactive)

Query N#Cc1ccc(C(O)C(F)(F)c2nc3ccccc3o2)cc1 (stereo unspecified) yields GI50 of > 100 µM (inactive)

Query "O=c1cc(/C=C/c2ccccc2)c2ccc(O/C(=C\c3ccccc3)c3nc4ccccc4c(=O)o3)cc2o1" yields GI50 of 25.6 µM (inactive)

Query "C[C@]12CC[C@H]3[C@@H](CCC4=CC(=O)CC[C@@]43C)[C@@H]1CC[C@@H]2OC(=O)c1cccc2c(=O)c3ccccc3[nH]c12" yields GI50 of > 100 µM (inactive)

Query "Cn1c2ccccc2n2c3ccccc3c(=S)c(C#N)c12" yields GI50 of > 100 µM (inactive)

Query "CCCCCCCCCCCc1nnc(N)o1" yields GI50 of > 100 µM (inactive)

Query "CN(C)C(=S)NC(=S)Nc1ccc2ccccc2c1" yields GI50 of 13.9 µM (inactive)

Query "COc1ccc(-c2coc3c4c(ccc3c2=O)OCO4)cc1OC" yields GI50 of 65.3 µM (inactive)

Query CCOC(=O)N1CCC2(CC1)C[C@@](C(C)=O)(c1ccccc1)C(C)O2 (stereo partly specified) yields GI50 of > 100 µM (inactive)

Query "CS(=O)(=O)NNS(=O)(=O)c1ccc(Br)cc1" yields GI50 of > 100 µM (inactive)

Query "O=C1CCCCCCCCCCC(=O)N2CCOCCOCCN1Cc1cccc(n1)C2" yields GI50 of > 100 µM (inactive)

Query "COc1cc2c(c3c1c(=O)c1ccccc1n3C)C=CC1(CCCCC1)O2" yields GI50 of 3.35 µM (inactive)

Query "CC1(C)N=C(N)N=C(N)N1c1cccc(C(=O)Nc2ccc(S(=O)(=O)F)cc2)c1" yields GI50 of > 100 µM (inactive)

Query "Nc1ccc(-c2nc3ccccc3s2)cc1I" yields GI50 of > 100 µM (inactive)

Query COC(=O)C1=C(OC(=O)/C(=C/c2ccc(Cl)cc2)c2ccccc2)C(C(=O)OC)[C@@]2(O)[C@@H](C(=O)OC)[C@H](C)C[C@@H]1[C@@H]2C(=O)OC (stereo partly specified) yields GI50 of > 100 µM (inactive)

Query "CO/C(N)=C(C#N)/N=C/c1ccsc1" yields GI50 of 37.3 µM (inactive)

FYI, the data here is from ChEMBL document CHEMBL1201862.
